System: MOLM-13 cells
Experiment: MOLM-13 Cell Proliferation Assay (indicator of DHODH inhibition)
Assay type: cell-based
Details: Homo sapiens, 72 Hours of culture, CellTiter-Glo, no uridine
Task for the reader: assign each of the following compounds its reported pIC50.
One number for each entry, as −log10 of the molar value.

Reference set, count: 10
>>> df
                                   compound  observed
0  C=Cc1ccc(C2c3[nH]c4ccc(Cl)cc4c3CCN2c2ncc(F)cn2)cc1 (stereo not drawn) [Compound 71]      7.71
1  FC(F)(F)c1ccnc(N2CCc3c([nH]c4ccc(Br)cc34)C2c2cnc(N3CCOCC3)nc2)n1 (stereo not drawn) [Compound 298]      8.92
2  N#Cc1nc(N2CCc3c([nH]c4cc(F)c(Cl)cc34)C2c2cccc(F)c2F)ncc1F (stereo not drawn) [Compound 183]      8.35
3  FC(F)(F)c1ccnc(N2CCc3c([nH]c4ccc(Cl)cc34)C2c2ccc(Cl)nc2Cl)n1 (stereo not drawn) [Compound 319]      7.09
4  Cc1ccc(C2c3[nH]c4cc(F)c(Cl)cc4c3CCN2c2nc(C)c(C)c(C)n2)cc1 (stereo not drawn) [Compound 163]      7.96
5  FC(F)(F)c1ccnc(N2CCc3c([nH]c4ccc(Cl)cc34)C2c2ccc(N3C[C@H]4C[C@@H]3CO4)nc2)n1 (stereo partly drawn) [Compound 373]      8.34
6  FC(F)(F)c1ccnc(N2CCc3c([nH]c4ccc(Cl)cc34)C2c2cnc(N3CC4(COC4)C3)nc2)n1 (stereo not drawn) [Compound 391]      8.24
7  COc1ncc([C@H]2c3[nH]c4ccc(Cl)cc4c3CCN2c2nc(C(F)(F)F)nc(C(F)(F)F)n2)cn1 [Compound 522]      9.15
8  Cc1nc(N2CCc3c([nH]c4ccc(Cl)cc34)C2c2ccc(N3CCOCC3)nc2)ncc1F (stereo not drawn) [Compound 365]      8.10
9  Cc1ccc(C2c3[nH]c4ccc(Cl)c(F)c4c3CCN2c2nccc(C#N)n2)c(F)c1F (stereo not drawn) [Compound 198]      8.92

Dear colleague, could you please provide pIC50 for the compounds listed below?
1. FC(F)(F)c1ccnc(N2CCc3c([nH]c4ccc(Cl)c(Br)c34)C2c2ccc(Cl)cc2)n1 (stereo not drawn) [Compound 247]
2. Cc1cnc(N2CCc3c([nH]c4ccc(Cl)c(F)c34)C2c2ccc(C)c(F)c2F)nc1 (stereo not drawn) [Compound 137]
3. FC(F)(F)c1cc(C(F)(F)F)nc(N2CCc3c([nH]c4ccc(-n5nccn5)cc34)[C@@H]2c2cnc(N3CCOCC3)nc2)n1 [Compound 514]
4. Cc1nc(N2CCc3c([nH]c4ccc(Cl)cc34)[C@@H]2c2cnc(N3CCOCC3)nc2)nc(C(F)(F)F)n1 [Compound 466]
5. Cc1ccc(C2c3[nH]c4ccc(N(C)C)cc4c3CCN2c2nccc(C(F)(F)F)n2)c(F)c1F (stereo not drawn) [Compound 330]

Key:
[8.74, 8.62, 9.22, 9.05, 7.95]

* * *

Tested on: MOLM-13 cells
Test: MOLM-13 Cell Proliferation Assay (indicator of DHODH inhibition)
Type: cell-based
Conditions: Homo sapiens, 72 Hours of culture, CellTiter-Glo, no uridine
test readout: IC50 (nM)
Answers are plain numbers, in nM.

Reference set, count: 4
>>> print(df.to_string())
                                   compound  test_readout  observed
0  Cc1ccc(C2c3[nH]c4c(O)cc(Cl)cc4c3CCN2c2nccc(C(F)(F)F)n2)cc1 (centres unmarked)          IC50       2.2
1  Oc1cc(C2c3[nH]c4ccc(Cl)cc4c3CCN2c2nccc(C(F)(F)F)n2)ccc1Cl (centres unmarked)          IC50       6.1
2  Cc1nc(C)nc(N2CCc3c([nH]c4c(N)cc(Cl)cc34)C2c2cnc(N3CCOCC3)nc2)n1 (centres unmarked)          IC50       5.6
3  Cc1cc(C)nc(N2CCc3c([nH]c4cc(F)c(Cl)cc34)C2c2ccc(F)cc2)n1 (centres unmarked)          IC50      26.3

Dear colleague, could you please provide IC50 for the compounds listed below?
1. Fc1cccc(C2c3[nH]c4ccc(Cl)cc4c3CCN2c2nccc(C(F)(F)F)n2)c1 (centres unmarked)
2. Cc1ccc(C2c3[nH]c4cc(F)c(Cl)cc4c3CCN2c2nccc(C#N)n2)c(F)c1F (centres unmarked)
3. CCc1ccnc(N2CCc3c([nH]c4cc(F)c(Cl)cc34)C2c2ccc(F)cc2)n1 (centres unmarked)
4. CC(C)c1ccc(C2c3[nH]c4cc(F)c(Cl)cc4c3CCN2c2ncc(Cl)cn2)cc1 (centres unmarked)

Key:
8.8
8.7
57.8
19.9

* * *

System: MOLM-13 cells
Test: MOLM-13 Cell Proliferation Assay (indicator of DHODH inhibition)
Type: cell-based
Settings: Homo sapiens, 72 Hours of culture, CellTiter-Glo, no uridine
Task for the reader: assign each of the following compounds its reported IC50.
Answers are plain numbers, in nM.

>>> df
                                   compound  test_readout  units_text  observed
0  Fc1c(Cl)ccc(C2c3[nH]c4ccc(Cl)cc4c3CCN2c2nccc(C(F)(F)F)n2)c1F (centres unmarked) [Cpd 144]          IC50          nM       0.7
1  Cc1ccc([C@H]2c3[nH]c4ccc(Cl)cc4c3CCN2c2nc(C#N)nc(C(F)(F)F)n2)c(F)c1F [Compound 390]          IC50          nM       3.5
2  Cc1cc(C)nc(N2CCc3c([nH]c4ccc(Cl)cc34)C2c2cnc(N3CCOCC3)nc2)n1 (centres unmarked) [Compound 308]          IC50          nM       3.8
3  Fc1cccc(C2c3[nH]c4ccc(Cl)cc4c3CCN2c2nccc(C(F)(F)F)n2)c1F (centres unmarked) [Compound 119]          IC50          nM       2.2
4  Cc1ccc(C2c3[nH]c4ccc(Cl)cc4c3CCN2c2nc(C)cc(C)n2)cc1 (centres unmarked) [Compound 286]          IC50          nM       4.1
5  Cc1ccc(C2c3[nH]c4ccc(Cl)cc4c3CCN2c2nccc(C(F)(F)F)n2)cc1 (centres unmarked) [Compound 343]          IC50          nM       3.3
6  N#Cc1ccc(C2c3[nH]c4cc(F)c(Cl)cc4c3CCN2c2ncc(Cl)cn2)cc1 (centres unmarked) [Compound 59]          IC50          nM      38.7

Below: the item to evaluate.
Exercise: State the recorded IC50 for this entry: Cc1cc(C(F)(F)F)nc(N2CCc3c([nH]c4ccc(Cl)cc34)C2c2cnc(N3CCOCC3)nc2)n1 (centres unmarked) [Compound 374]
Key: 1.6

* * *

Test system: MOLM-13 cells
Assay: MOLM-13 Cell Proliferation Assay (indicator of DHODH inhibition)
Type: cell-based
Details: Homo sapiens, 72 Hours of culture, CellTiter-Glo, no uridine
test readout: IC50 (nM)
Give bare numbers, in nM.

Reference set, count: 6
                                   compound  observed
0  OCCCCc1ccc(C2c3[nH]c4cc(F)c(Cl)cc4c3CCN2c2nccc(C(F)(F)F)n2)cc1 (stereo not shown)       4.1
1  Cc1ccnc(N2CCc3c([nH]c4ccc(Cl)cc34)C2c2ccc(N3CCOCC3)nc2)n1 (stereo not shown)       8.9
2  FC(F)(F)c1ccnc(N2CCc3c([nH]c4ccc(-n5cccn5)cc34)C2c2cnc(N3CCOCC3)nc2)n1 (stereo not shown)      23.9
3  Cc1cnn(-c2ccc3[nH]c4c(c3c2)CCN(c2nc(C(F)(F)F)nc(C(F)(F)F)n2)[C@H]4c2ccc(C)c(F)c2F)n1       1.3
4  CN1CCN(c2ccc([C@H]3c4[nH]c5ccc(Cl)cc5c4CCN3c3nccc(C(F)(F)F)n3)cn2)CC1       3.2
5  Fc1cc(Cl)ccc1C1c2[nH]c3ccc(Cl)cc3c2CCN1c1nccc(C(F)(F)F)n1 (stereo not shown)       2.7

Below: the item to evaluate.
Exercise: State the recorded IC50 for this entry: Cc1ccc(C2c3[nH]c4ccc(Cl)cc4c3CCN2c2nccc(C)n2)cc1 (stereo not shown)
Key: 11.8

* * *

Tested on: MOLM-13 cells
Experiment: MOLM-13 Cell Proliferation Assay (indicator of DHODH inhibition)
Format: cell-based
Settings: Homo sapiens, 72 Hours of culture, CellTiter-Glo, no uridine
Description: The following assay was conducted to measure proliferation of MOLM-13 cells in the presence of each compound studied. […] On day 1, Log-phase growing Molm-13 Cells were counted and diluted to 10^5 cells/mL in RPMI 1640 medium+10% FBS • 3. […] The plates were then read by ViewLux (Speed-fast, Gain-High, Bining-1X, 5 seconds).
pIC50: −log10 of the molar value.
Could you label it TRUE if measured pIC50 is 8 or higher, and FALSE otherwise?

Illustrative cases are given below, each with its answer.
>>> df
                                   compound  group
0  Cc1ccc([C@@H]2c3[nH]c4ccc(Cl)cc4c3CCN2c2ncc(F)c(C)n2)c(F)c1F  FALSE
1  Cc1ccc([C@H]2c3[nH]c4ccc(-n5nccn5)cc4c3CCN2c2nc(C(F)(F)F)cc(C(F)(F)F)n2)c(F)c1F   TRUE
2  O=C(O)CCCNc1ncc([C@H]2c3[nH]c4ccc(Cl)cc4c3CCN2c2nc(C(F)(F)F)nc(C(F)(F)F)n2)cn1   TRUE
3  CN1CCN(c2ncc([C@H]3c4[nH]c5ccc(Cl)cc5c4CCN3c3ncnc(C(F)(F)F)n3)cn2)CC1   TRUE
4  N#Cc1ccnc(N2CCc3c([nH]c4cc(F)c(Cl)cc34)C2c2ccc(F)cc2)n1 (centres unmarked)  FALSE

Continue with the compound presented below.
Exercise: Could you verify whether the entry OCCNc1ncc([C@H]2c3[nH]c4ccc(Cl)cc4c3CCN2c2nc(C(F)(F)F)nc(C(F)(F)F)n2)cn1 shows pIC50 of no less than 8?
Key: TRUE
